# testedSystem: T1, engrailed homeodomain (enHD) (UniProt P02836 456-509)
# T1 sequence: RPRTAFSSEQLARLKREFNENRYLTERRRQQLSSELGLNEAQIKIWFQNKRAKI
# testDescription: NMR titration (1H-15N HSQC, W501 and A460); 50 mM NaCl, 25 mM phosphate pH 6.8, 298 K; stated as sub-uM, too tight to evaluate Kd; NMR: 200 uM enHD, 298 K, 5% D2O; 20 mM MES pH 6 + 25 mM NaCl; 20 mM acetate pH 4 + 300 or 700 mM NaCl; 25 mM phosphate pH 6.8 + 50 mM NaCl. CD: 15 uM enHD and DNA, 20 mM MES pH 6, 25 mM NaCl, room temperature
# measurementContext: protein: recombinant; tags: none (untagged, or SUMO/His tag cleaved by ULP1); 15N or 13C,15N labelled for NMR; 5' overhang 1 nt on each strand, 20 bp
pKd: −log10 of the molar value.
recordedEndpoint: pKd

INPUT: Please look up its pKd: cognate DNA (same as X-ray structure) (dsDNA) DNA 1: TTTTGCCATGTAATTACCTAA DNA 2: ATTAGGTAATTACATGGCAAA
OUTPUT: > 6.00
